# Test system: MUSK;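 note: KINOMEscan scanMAX binding as percent activity remaining versus control; lower means stronger binding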
# CONDITION_CONTEXT: Compound Concentration (nM):1000
Below, each entry is listed with its recorded Percent Control.
Give the value, in units of %, as a plain number.

Worked examples follow.
INSERT INTO results (molecule, metric, val) VALUES
  ('Nc1ncnc2occ(-c3ccc(NC(=O)Nc4cc(C(F)(F)F)ccc4F)cc3)c12 [GW770249X]', 'Percent Control', 1.4),
  ('Cc1cc(O)cc(C)c1/C=C/c1cncc(C(N)=O)c1 [GW435821X]', 'Percent Control', 100),
  ('NS(=O)(=O)c1ccc(Nc2ncc(-c3ccccc3)o2)cc1 [GW572399X]', 'Percent Control', 100);

# input State its Percent Control: O=C(Nc1n[nH]c2nc(-c3ccc(O)cc3)c(Br)cc12)C1CC1
# output 100

# input Return reported Percent Control. Input molecule: NS(=O)(=O)c1ccc(N/N=C2\C(=O)Nc3ccc(C(=O)NCCc4c[nH]cn4)cc32)cc1 [GW300660X]
# output 100

# input Identify measured Percent Control corresponding to COc1ccccc1-c1cc(/C=C2\C(=O)Nc3ncc(Br)cc32)cc(Br)c1O [GW442130X]
# output 100

# input Give a short answer stating reported Percent Control for COc1cc(C=NNc2ncnc3c2cnn3-c2ccccc2)ccc1O [GW513184X] .
# output 100

# input Using known records, supply Percent Control for CC1=C(C(=O)Nc2ccc3[nH]ncc3c2)C(c2ccc(Cl)c(Cl)c2)CC(=O)N1 (stereo not drawn) [GSK299115A]
# output 100

# input Query Percent Control for COc1ccc2cc(-c3c(-c4ccncc4)nc(-c4ccc(S(C)(=O)=O)cc4C)n3C)ccc2c1
# output 99
